Attribution: paper doi:10.1101/2020.05.21.107789

# tgt: TEAD4 (recombinant protein of the TR-FRET and SPR assays) (human)
# experimentSummary: SPR
recordedMetric: Kd (nM)

binder | uom | reported
VGLL2^85-149 (β-strand:α-helix:Ω-loop of human VGLL2) (peptide) peptide: Ac-CVLFTYFQGDISSVVDEHFSRALSQPSSYSPSCTSSKAPRSSGPWRDCSFPMSQRSFPASFWNSA-NH2 | nM | 34

[I] Ac-CVLFTYFQGDISSVVDEHFSRALS-NH2 [VGLL2^85-108 (β-strand:α-helix of human VGLL2)]
[II] Ac-CVVFTNYSGDTASQVDEHFSRALNYNNKDSKESSSPMSNRNFPPSFWNSN-NH2 [Vg^288-337 (TONDU domain and Ω-loop of Vestigial)]
Q. Sort I and II by Kd descending and give the first. Answer by stating the label of the chosen item.
A. I
